The measured values listed here are drawn from patent US11332470B2.

Protocol Text: in vitro
Assay Context: human, Caco-2, pH 7.4
# key: entry, value: efflux ratio at 90 min, 10 μM

// below: answered compounds
>  <Compound>
CN1CCN(c2cccc3nc(CN4CCCC4c4ncc[nH]4)cn23)CC1 (stereo not drawn)

>  <efflux ratio at 90 min, 10 μM>
0.1 to 10

$$$$
>  <Compound>
CN1CCN(c2c(C3CCCN3Cc3ccccn3)nc3ccccn23)CC1 (stereo not drawn)

>  <efflux ratio at 90 min, 10 μM>
0.1 to 10

$$$$

Supply efflux ratio at 90 min, 10 μM value. Item: CN1CCC(Cn2ccnc2CN2CCCC2c2ccccn2)CC1 (stereo not drawn)
> 30
